molecular target: delta opioid receptor (NG108-15 cell membranes) (Mus musculus); construct: NG108-15 cell membranes were purchased from Applied Cell Sciences (Rockville, Md.); host or cells: NG108-15 cells (membranes purchased); assay: Delta Opioid Receptor Functional Assay: [35S]GTPγS Binding in NG108-15 Cell Membranes, Version 2; assay type: biochemical; details: NG108-15 cell membranes, version 2; % inhibition of agonist-stimulated GTPγS binding
Sequence (P32300 whole entry): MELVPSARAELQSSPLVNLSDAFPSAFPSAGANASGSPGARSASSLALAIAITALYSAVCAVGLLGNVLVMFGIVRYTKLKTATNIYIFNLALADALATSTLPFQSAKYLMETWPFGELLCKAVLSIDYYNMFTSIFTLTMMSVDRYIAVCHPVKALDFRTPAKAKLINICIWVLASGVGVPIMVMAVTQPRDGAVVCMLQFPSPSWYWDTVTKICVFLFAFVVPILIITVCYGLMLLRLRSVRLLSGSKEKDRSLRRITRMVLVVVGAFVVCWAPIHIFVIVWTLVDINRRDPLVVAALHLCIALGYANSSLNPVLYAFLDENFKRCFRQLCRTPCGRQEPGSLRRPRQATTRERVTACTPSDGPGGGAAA
Collected DOR GTP-binding Assay v2 (% I) values appear next to each entry.
Assay Readout: DOR GTP-binding Assay v2 (% I) (%)

Molecule: COC(=O)c1ccc(CN(C(=O)[C@@H](N)Cc2c(C)cc(O)cc2C)[C@@H](C)c2nc(-c3ccccc3)c[nH]2)o1 [Cpd 286]
Assay Readout: DOR GTP-binding Assay v2 (% I)
Value Units: %
Reported Result: 34.65

Molecule: Cc1cc(O)cc(C)c1C[C@H](N)C(=O)N(Cc1ccnc2ccccc12)[C@@H](C)c1nc(-c2ccccc2)c[nH]1 [Cpd 246]
Assay Readout: DOR GTP-binding Assay v2 (% I)
Value Units: %
Reported Result: 47.01

Molecule: COc1ccc(CN(C(=O)[C@@H](N)Cc2c(C)cc(O)cc2C)[C@@H](C)c2nc(-c3ccccc3)c[nH]2)cc1C(=O)O [Cpd 260]
Assay Readout: DOR GTP-binding Assay v2 (% I)
Value Units: %
Reported Result: 100.97

Molecule: COc1ccc(CN(C(=O)[C@@H](N)Cc2c(C)cc(C(N)=O)cc2C)[C@@H](C)c2nc(-c3ccc(Br)cc3)c[nH]2)cc1C(=O)O [Cpd 291]
Assay Readout: DOR GTP-binding Assay v2 (% I)
Value Units: %
Reported Result: 96.52

Molecule: Cc1cc(C(N)=O)cc(C)c1C[C@H](N)C(=O)N(Cc1ccc(C(=O)O)nc1)[C@@H](C)c1nc(-c2ccccc2)c[nH]1 [Cpd 254]
Assay Readout: DOR GTP-binding Assay v2 (% I)
Value Units: %
Reported Result: 62.00

Molecule: COc1ccc(CN(C(=O)[C@@H](N)Cc2c(C)cc(C(N)=O)cc2C)[C@@H](C)c2nc(-c3cccc(Br)c3)c[nH]2)cc1C(=O)O [Cpd 288]
Assay Readout: DOR GTP-binding Assay v2 (% I)
Value Units: %
Reported Result: 74.54

###

target: human mu opioid receptor (Homo sapiens); construct: purchased Perkin Elmer RBHOMM400UA; host or cells: Chinese Hamster Ovary cells (recombinant expression); experiment: Human Mu Opioid Receptor Binding Assay (CHO membranes, 3H-Damgo); settings: read-out: hKi μ
Sequence (P35372 whole entry): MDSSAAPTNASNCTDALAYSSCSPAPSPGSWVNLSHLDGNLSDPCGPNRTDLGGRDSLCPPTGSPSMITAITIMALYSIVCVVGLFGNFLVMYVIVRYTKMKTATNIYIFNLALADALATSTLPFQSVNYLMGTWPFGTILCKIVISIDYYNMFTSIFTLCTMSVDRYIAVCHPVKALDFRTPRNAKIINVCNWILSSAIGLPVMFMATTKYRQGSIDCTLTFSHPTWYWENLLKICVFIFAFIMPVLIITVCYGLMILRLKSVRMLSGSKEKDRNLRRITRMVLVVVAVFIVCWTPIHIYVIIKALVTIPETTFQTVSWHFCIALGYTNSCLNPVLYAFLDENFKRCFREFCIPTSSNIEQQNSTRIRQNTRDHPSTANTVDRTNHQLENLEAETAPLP
Threshold check on Ki: strictly below 20 nM is 1 (yes); on or above 20 nM is 0 (no).

Molecule: Cc1cc(O)cc(C)c1C[C@H](N)C(=O)N(Cc1ccc(Cl)cc1Cl)[C@@H](C)c1nc(-c2ccccc2)c[nH]1 [Cpd 103]
Experimental System: human mu opioid receptor (Homo sapiens)
Discrete Label: 0 (no)
--
Molecule: Cc1cc(O)cc(C)c1C[C@H](N)C(=O)N[C@H](C)c1nc(-c2ccccc2)c[nH]1 [Cpd 208]
Experimental System: human mu opioid receptor (Homo sapiens)
Discrete Label: 1 (yes)
--
Molecule: Cc1cc(C(N)=O)cc(C)c1C[C@H](N)C(=O)N(Cc1ccccc1)[C@@H](C)c1nc(-c2ccc(C(F)(F)F)cc2)c(C)[nH]1 [Cpd 74]
Experimental System: human mu opioid receptor (Homo sapiens)
Discrete Label: 1 (yes)
--
Molecule: COc1ccc(CN(C(=O)[C@@H](N)Cc2c(C)cc(C(N)=O)cc2C)[C@@H](C)c2nc(-c3ccc(I)cc3)c[nH]2)cc1C(=O)O [Cpd 289]
Experimental System: human mu opioid receptor (Homo sapiens)
Discrete Label: 1 (yes)
--
Molecule: Cc1cc(O)cc(C)c1C[C@H](N)C(=O)N(Cc1cccc(Br)c1)[C@@H](C)c1nc(-c2ccccc2)c[nH]1 [Cpd 101]
Experimental System: human mu opioid receptor (Homo sapiens)
Discrete Label: 0 (no)
--
Molecule: CC(C)N(C(=O)[C@@H](N)Cc1cccc(C(N)=O)c1)[C@@H](Cc1ccccc1)c1nc(-c2ccccc2)c[nH]1 [Cpd 136]
Experimental System: human mu opioid receptor (Homo sapiens)
Discrete Label: 0 (no)
--
Molecule: Cc1cc(O)cc(C)c1C[C@H](N)C(=O)N[C@@H](CO)c1nc(-c2ccccc2)c[nH]1 [Cpd 119]
Experimental System: human mu opioid receptor (Homo sapiens)
Discrete Label: 0 (no)

The measurements presented in this section are drawn from patent US10213415B2.
